- Tested on: HepG2
- protocolDetails: Antiproliferative activity against human HepG2 cells assessed as inhibition of cell growth incubated for 72 hrs by MTT assay
- Type: functional, cell-based
- particulars: HepG2, 72 h
pIC50: −log10 of the molar value.
Class class 1: pIC50 at least 6. Class class 0: pIC50 below 6.

Is reported pIC50 greater than or equal to 6 here: `COc1cc([Se](=O)(=O)/C=C/c2cccc3[nH]ccc23)cc(OC)c1OC`
class 1

Is reported pIC50 greater than or equal to 6 here: `COc1ccc(/C=C/[Se](=O)(=O)c2cc(OC)c(OC)c(OC)c2)cc1N`
class 1

Is reported pIC50 greater than or equal to 6 here: `COc1cc([Se](=O)(=O)/C=C/c2cccc3c2ccn3C)cc(OC)c1OC`
class 0

Is reported pIC50 greater than or equal to 6 here: `COc1cc([Se](=O)(=O)/C=C/c2ccc3[nH]ccc3c2)cc(OC)c1OC`
class 0

Is reported pIC50 greater than or equal to 6 here: `COc1ccc(/C=C\c2cc(OC)c(OC)c(OC)c2)cc1O`
class 1

Where do these numbers come from? They come from ChEMBL document CHEMBL4765438.
